# Test system: TDF;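 note: TDF is a line of transformed human dermal fibroblasts of mesenchymal origin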
# procedure summary: H1.0 immunofluorescence intensity relative to DMSO (% of DMSO); higher = stronger H1.0 induction, active = 120 or more
# assay context: concentration: 10 µM; 24 h
readout label: H1.0 immunofluorescence intensity

{"compound": "N#Cc1c(-c2ccccc2)no[n+]1[O-] [4-Phenyl-3-furoxancarbonitrile]", "assay system": "TDF", "readout value": 93.2}
{"compound": "Cn1nc2c3c(cccc31)C(=O)c1ccccc1-2 [JNK Inhibitor, Negative Control]", "assay system": "TDF", "readout value": 90.4}
{"compound": "CC(=O)Oc1cc(C(C)C)c(OCCN(C)C)cc1C.Cl [Moxisylyte hydrochloride]", "assay system": "TDF", "readout value": 91.4}
{"compound": "Cl.Cn1ccc2cc3c(cc21)CCN3C(=O)Nc1cccnc1", "assay system": "TDF", "readout value": 87.9}
{"compound": "COc1ccccc1N1CCN(CCN(C(=O)c2ccc(I)cc2)c2ccccn2)CC1.Cl [p-MPPI hydrochloride]", "assay system": "TDF", "readout value": 96.6}
{"compound": "CCCCCCCCCCCCCCCC(=O)NCCc1ccc(O)c(O)c1 [Palmitoyl dopamine]", "assay system": "TDF", "readout value": 101}
{"compound": "Cl.c1ccc(C2CN3CCSC3=N2)cc1 (single isomer, unassigned; (-)) [(-)-Tetramisole hydrochloride]", "assay system": "TDF", "readout value": 92.4}
{"compound": "CCCCC=CCCCCCCCCC(=O)O [10(Z)-Pentadecenoic acid]", "assay system": "TDF", "readout value": 103}
